test system: HL-60; assay: NCI tumour cell line growth inhibition, 48 h
Activity calls are given as the source filed them. Rule as the data show it: active = GI50 up to about 1.1 µM and inactive = higher.
The categories you may choose from are active, inactive

Could you please tell me the result logged for `O=C(NO)c1ccc(OCc2ccccc2)cc1` in this assay?
inactive

Name the outcome recorded for `COC(=O)c1ccc(NC(=O)O/N=C(\Cl)C(C)C)cc1` in the assay.
inactive

Would you mind telling me which call this test gave `C(=N\NC1=NCCCN1)/c1ccc(-c2cn3cc(/C=N/NC4=NCCCN4)ccc3n2)cc1` ?
inactive

Outcome logged for BrC1=CC=C2NC=CC3=CC=NC1C32 (stereo not given) in this assay:
inactive

Which outcome did this test record for the compound CC(=O)CC1CCC(=O)/C=C/C(=O)OC(CC(C)=O)CCC(=O)/C=C/C(=O)O1 (stereo not given) ?
inactive

Write down the call the test reported for this compound. Item: CC(C)NC1CCCCC2c3cc(F)ccc3[C@]12O (stereo not given in full)
inactive

Tell me the recorded outcome of this test for `c1cc2c(cc1[C@@H]1OC[C@@H]3[C@H]1CO[C@H]3c1ccc3c(c1)OCO3)OCO2` .
inactive

Per the assay record, what outcome was assigned to `O=C1c2ccccc2/C=C\C(c2ccccc2)=N/N1c1ccccc1Cl` ?
inactive

State the result this test recorded for `O=C1C(N2CCCC2)=CC(=O)c2c(O)c(N3CCCC3)c(Cl)c(O)c21` .
inactive

Fill in: this test's call for COc1ccc(C(c2ccc3c(c2)OCO3)N2C(=O)CCC2C(=O)O)cc1 (stereo not given) is ___
inactive

Could you kindly confirm the outcome this assay logged for `Cc1ccc2c(O)cc(-c3cc(C)sc3C)nc2n1` ?
inactive

Per the records of this test, what outcome belongs to `CC1(C)C(=NN=C(N)N)C(C)(C)C1=NN=C(N)N` ?
inactive

Returns: the outcome recorded for `CN(Cc1cnc2nc(N)nc(N)c2n1)c1ccc(C(=O)NC2CCCCC2)cc1` in this assay.
inactive

What classification did COc1ccc(C2OC(=O)c3c2ccc2ccccc32)c(C)c1 (stereo not given) end up with in this test?
inactive

Give the logged outcome of this assay for the following compound: `COc1cccc(/C=C2\CCCc3ccccc3C2=O)c1`
inactive

Kindly provide the recorded test outcome for the following compound: `CO[C@H]1C[C@](C)(O)Cc2cc3c(c(O)c21)C(=O)c1c(O)cc2c(c1C3=O)O[C@@H]1O[C@@]2(C)[C@H](O)[C@@H](N(C)C)[C@@H]1O`
active

Short answer needed: outcome of this test for `Cc1ccccc1NC(=O)O/N=C(\Cl)C(C)C` ?
inactive

Which result was noted for this compound in the test: `CC1=C(C(=O)NNC(=O)c2ccccc2)CC(C(=O)NNC(=O)c2ccccc2)=C(C)N1`
inactive

Dear all, I need the recorded test outcome for `Cc1cccc(C(C)C)c1NC(=O)C(=O)CC(=O)c1c(C)[n+]([O-])c2ccccc2[n+]1[O-]` , thank you.
inactive

Outcome logged for `Cc1ccc(S(=O)(=O)c2c3nc4ccccc4nc3n3c2[nH]c2ccccc23)cc1` in this assay:
inactive

----------
test system: CAKI-1; experiment: NCI tumour cell line growth inhibition, 48 h
Activity calls are given as the source filed them. No stated cut-off is given here; in the data, active = GI50 up to about 1.1 µM and inactive = higher.
Please answer using one outcome listed in active, inactive

What did the test return for `Cc1cccc(C)c1NC(=O)C(=O)Nn1c(NN)nc2ccccc2c1=O` ?
inactive

Write down the call the test reported for this compound. Item: `C#CC(C)(C)Oc1cc(O)c2c(=O)c3ccccc3n(C)c2c1`
inactive

Per the records of this test, what outcome belongs to `COc1ccc(C)cc1-c1cc(Sc2ccccc2)c(-c2cc(C)ccc2OC)o1` ?
inactive

Hello, I am checking results. What call was entered for `C=C1OC(=O)[C@]2([C@@H](/C=C/C)C=CC(=O)[C@H]2O)[C@@H]1O` ?
inactive

Just curious, what result did `CC#C[I+]c1ccccc1` get here?
inactive

Hey, what did the test say about CC(=O)NCCCCCCNC(C)=O [HEXAMETHYLENEBISACETAMIDE] ?
inactive

# lookup: test call for `CCP(=O)(CC)C(Cl)Cl`
inactive

Just curious, what result did `CCN(CC)CCNC(=O)c1cc2cc(NC(=O)c3cc4cc(N)ccc4[nH]3)ccc2[nH]1` get here?
inactive

Which outcome did this test record for the compound `COc1c(I)c(OC)c2c(c1I)O[C@@H]1OCC[C@H]21` ?
active

Outcome? O=C(CC1(O)C(=O)Nc2ccccc21)c1ccccc1O (stereo unspecified)
inactive

Hello, I am checking results. What call was entered for `CCOC(=O)C[C@@H]1C2(C=C[C@@]13CO3)OCC(C)(C)CO2` ?
inactive

----------
tested on: SW-620; assay: NCI tumour cell line growth inhibition, 48 h
The source made the active and inactive calls. Cut-off read from the data, not from the text of the source: active = GI50 up to about 1.1 µM and inactive = higher.
reported metric: GI50

Answer with the recorded GI50 of COc1ccc(C2SCC(=O)N2c2ccc(-n3c(-c4ccccc4)nc4ccccc4c3=O)cc2)cc1 (stereo not drawn) only.
> 100 µM (inactive)

Identify the reported GI50 for the following entry. `S=P(c1ccccc1)(c1ccccc1)C1(C2(P(=S)(c3ccccc3)c3ccccc3)CC2)CC1`
> 100 µM (inactive)

Name the recorded GI50 of the item `Brc1ccc2c(c1)C1(c3cc(Br)ccc3-2)c2cc(Br)ccc2-c2ccc(Br)cc21` in your answer.
> 100 µM (inactive)

----------
system: A498; experiment: NCI tumour cell line growth inhibition, 48 h
Activity calls are given as the source filed them. Cut-off read from the data, not from the text of the source: active = GI50 up to about 1.1 µM and inactive = higher.
Lab note: assign the record to one of active, inactive

Could you please tell me the result logged for `CSc1ccc(/C=C2\N=C(c3ccccc3)N(c3nc4cc(Cl)c(F)cc4s3)C2=O)cc1` in this assay?
inactive

Which outcome did this test record for the compound `CCCCCC#CCOC(=O)C(=[N+]=[N-])P(=O)(c1ccccc1)c1ccccc1` ?
inactive

Please state the recorded outcome for this compound: `O=S(=O)(O)c1ccc(-c2nnc(-c3ccccn3)nc2-c2ccc(S(=O)(=O)O)o2)o1`
inactive

I would be grateful if you could indicate the recorded call for O=C(OCc1ccccc1)N1N=NC2C1C1CC(OCc3ccccc3)(OCc3ccccc3)C2O1 (stereo not drawn) .
inactive

Lab log entry: C[C@@]12CCCC(=O)N1[C@@H](CO)C(c1ccccc1)O2 (stereo partly drawn) — outcome as called in the assay?
inactive

For COC(=O)c1onc(C2OC(C)(C)OC2C(O)COC(c2ccccc2)(c2ccccc2)c2ccccc2)c1C(=O)OC (stereo not drawn) , which call appears in the assay record?
inactive

Kindly provide the recorded test outcome for the following compound: `CN(CCNCc1cn(C)c2c1ccc1ccccc12)CCNCc1cn(C)c2c1ccc1ccccc12`
active

For `C[C@H](CCC(=O)NCCS(=O)(=O)O)[C@H]1CC[C@H]2[C@@H]3CC[C@@H]4C[C@H](O)CC[C@]4(C)[C@H]3CC[C@]12C` , what call appears in the results of this test?
inactive

----------
test system: KM12; assay: NCI tumour cell line growth inhibition, 48 h
Counter-ions that a name gives are not always drawn. Calls of active or inactive are those of the source. Rule as the data show it: active = GI50 up to about 1.1 µM and inactive = higher.
Select the matching outcome among active, inactive

What outcome does the record of this test show for CCN(CC)C1Oc2cc3c(cc2C(c2cccc(OC)c2OC)C1C)OCO3 (stereo not given) ?
inactive

Please let me know the test result on file for CN(C)CCOC(c1ccccc1)c1ccccc1 [DIPHENHYDRAMINE HYDROCHLORIDE] .
inactive

Which result was noted for this compound in the test: `C=C/C(C)=C/[C@H](C)C(=O)C[C@H](O)CC1CC(=O)NC(=O)C1`
inactive

So what was the verdict on `N#Cc1c(N2CCN(c3ccc([N+](=O)[O-])cc3)CC2)[n+]([O-])c2ccc(Cl)cc2[n+]1[O-]` in this test?
inactive

Kindly provide the recorded test outcome for the following compound: `COc1ccc(C(OC(=O)[C@H](O[Si](C)(C)C(C)(C)C)[C@@H](NC(=O)c2ccccc2)c2ccccc2)c2ccc(OC)cc2)cc1`
inactive

Outcome logged for COc1ccc(C2SCC(=O)N2c2ccc(-n3c(-c4ccccc4)nc4ccccc4c3=O)cc2)cc1 (stereo not given) in this assay:
inactive

Given `O=C(NCc1ccc(Cl)cc1)c1cc2sccc2nc1C(F)(F)F` , state the outcome it received in this test.
inactive

Field: outcome | Entry: `CN(NC(=O)CCCl)C1=NCCCCN1`
inactive

Per the assay record, what outcome was assigned to `O=C1OC(c2ccccc2)=N/C1=C\c1ccc(Cl)cc1` ?
inactive

Dear colleague, could you share the recorded outcome for `O=C(NN=C1CCCCC1)Nc1ccccc1Cl` when you have a moment?
inactive

For `COc1cc(CCCl)c(CC2=NCCc3cc(OC)c(OC)cc32)cc1OC` , which call appears in the assay record?
inactive

What is the recorded call for this compound in the test? CC(C)CC1c2[nH]c3ccccc3c2C[C@H]2C(=O)NC(CCCCNC(=O)OC(C)(C)C)C(=O)N12 (stereo not given in full)
inactive

For O=S(=O)(O)C(Cc1nc2ccccc2[nH]1)S(=O)(=O)OCCC1S(=O)(=O)OCCOS1(=O)=O (stereo not given) , which call appears in the assay record?
inactive

Outcome? COC1/C=C\C=C(/C)C(=O)NC2=CC(=O)C(O)=C(CC(C)CC(OC)C(O)C(C)/C=C(\C)C1OC(N)=O)C2=O (stereo not given)
active

Give the logged outcome of this assay for the following compound: `O=C(O)c1cc2ccccc2c(/N=N/c2ccccc2)c1O`
inactive

So what was the verdict on `O=C1C(N2CCCC2)=CC(=O)c2c(O)c(N3CCCC3)c(Cl)c(O)c21` in this test?
inactive

// return assay outcome for `CCCCOC(=O)NC(=O)c1cn(CCCOC(=O)CCCCCCCCC(=O)OCCCn2cc(C(=O)NC(=O)OCCCC)c(=O)[nH]c2=O)c(=O)[nH]c1=O`
inactive

What classification did NC[C@H]1Nc2ccccc2[C@@H](O)C1O (stereo not given in full) end up with in this test?
inactive

Lab log entry: `C[C@H](N)C(=O)Nc1ccc(-c2nc3ccccc3s2)cc1` — outcome as called in the assay?
inactive

What did this assay record as the result for `CC(C)(C)c1cc2c(OP(c3ccccc3)c3ccccc3)c(c1)Cc1cc(C(C)(C)C)cc(c1OP(c1ccccc1)c1ccccc1)Cc1cc(C(C)(C)C)cc(c1OP(c1ccccc1)c1ccccc1)Cc1cc(C(C)(C)C)cc(c1OP(c1ccccc1)c1ccccc1)C2` ?
inactive
